These measurements were taken from ChEMBL document CHEMBL2176955.

Each entry below lists one item and its recorded IC50 value.
biological target: UniProt P36888; experiment: Inhibition of recombinant FLT3 using Poly (Glu,Tyr) as substrate after 2 hrs by luminescence assay
Sequence (P36888 whole entry): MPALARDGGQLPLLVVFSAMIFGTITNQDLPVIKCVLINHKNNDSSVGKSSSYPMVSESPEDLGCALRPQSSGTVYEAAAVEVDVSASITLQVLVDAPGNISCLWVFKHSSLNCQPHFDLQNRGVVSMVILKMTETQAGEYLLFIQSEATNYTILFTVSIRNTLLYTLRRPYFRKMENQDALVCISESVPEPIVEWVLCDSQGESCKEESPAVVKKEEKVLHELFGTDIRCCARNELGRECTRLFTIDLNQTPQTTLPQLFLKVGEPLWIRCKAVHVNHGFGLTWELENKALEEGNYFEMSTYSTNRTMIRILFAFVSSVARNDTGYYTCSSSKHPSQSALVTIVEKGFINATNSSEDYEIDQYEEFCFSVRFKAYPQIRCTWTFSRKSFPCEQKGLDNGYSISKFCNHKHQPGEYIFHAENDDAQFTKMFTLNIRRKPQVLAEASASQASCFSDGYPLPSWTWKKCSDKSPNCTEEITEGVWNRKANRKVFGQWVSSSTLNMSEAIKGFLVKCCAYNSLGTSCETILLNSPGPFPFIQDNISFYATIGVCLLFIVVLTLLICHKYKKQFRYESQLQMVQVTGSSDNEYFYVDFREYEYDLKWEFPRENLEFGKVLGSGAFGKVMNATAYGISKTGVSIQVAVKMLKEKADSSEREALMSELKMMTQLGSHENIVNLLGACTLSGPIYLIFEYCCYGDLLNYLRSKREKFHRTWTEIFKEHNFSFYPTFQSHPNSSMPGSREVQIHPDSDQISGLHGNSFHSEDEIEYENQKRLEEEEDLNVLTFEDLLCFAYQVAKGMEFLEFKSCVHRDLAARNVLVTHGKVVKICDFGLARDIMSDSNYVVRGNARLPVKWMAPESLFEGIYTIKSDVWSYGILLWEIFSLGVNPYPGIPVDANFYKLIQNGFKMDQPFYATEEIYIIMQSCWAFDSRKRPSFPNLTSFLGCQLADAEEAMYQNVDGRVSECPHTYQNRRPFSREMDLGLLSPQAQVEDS
Give me the value, and tack the unit on after it.

Here is how some compounds turned out for IC50.
[
  {
    "compound": "C1=CCOCc2cc(ccc2N2CCNCC2)Nc2nccc(n2)-c2cccc(c2)COC1 (mixture of isomers)",
    "experimental system": "UniProt P36888",
    "measured result": "49 nM"
  },
  {
    "compound": "CCN(CC)CCOc1ccc2cc1COCC=CCOCc1cccc(c1)-c1ccnc(n1)N2 (mixture of isomers)",
    "experimental system": "UniProt P36888",
    "measured result": "29 nM"
  },
  {
    "compound": "O=C1CCCN1CCOc1ccc2cc1COCC=CCOCc1cccc(c1)-c1ccnc(n1)N2 (mixture of isomers)",
    "experimental system": "UniProt P36888",
    "measured result": "140 nM"
  }
]

Lab note: next compound to report on.
Note to self: IC50 recorded for C1=CCOCc2cc(ccc2OCCN2CCCCC2)Nc2nccc(n2)-c2cccc(c2)COC1 (mixture of isomers) was 26 nM
